Target: T1, EsCas13d, nuclease-dead (Eubacterium siraeum, UniProt B0MS50, R295A;H300A;R849A;H854A)
T1 sequence: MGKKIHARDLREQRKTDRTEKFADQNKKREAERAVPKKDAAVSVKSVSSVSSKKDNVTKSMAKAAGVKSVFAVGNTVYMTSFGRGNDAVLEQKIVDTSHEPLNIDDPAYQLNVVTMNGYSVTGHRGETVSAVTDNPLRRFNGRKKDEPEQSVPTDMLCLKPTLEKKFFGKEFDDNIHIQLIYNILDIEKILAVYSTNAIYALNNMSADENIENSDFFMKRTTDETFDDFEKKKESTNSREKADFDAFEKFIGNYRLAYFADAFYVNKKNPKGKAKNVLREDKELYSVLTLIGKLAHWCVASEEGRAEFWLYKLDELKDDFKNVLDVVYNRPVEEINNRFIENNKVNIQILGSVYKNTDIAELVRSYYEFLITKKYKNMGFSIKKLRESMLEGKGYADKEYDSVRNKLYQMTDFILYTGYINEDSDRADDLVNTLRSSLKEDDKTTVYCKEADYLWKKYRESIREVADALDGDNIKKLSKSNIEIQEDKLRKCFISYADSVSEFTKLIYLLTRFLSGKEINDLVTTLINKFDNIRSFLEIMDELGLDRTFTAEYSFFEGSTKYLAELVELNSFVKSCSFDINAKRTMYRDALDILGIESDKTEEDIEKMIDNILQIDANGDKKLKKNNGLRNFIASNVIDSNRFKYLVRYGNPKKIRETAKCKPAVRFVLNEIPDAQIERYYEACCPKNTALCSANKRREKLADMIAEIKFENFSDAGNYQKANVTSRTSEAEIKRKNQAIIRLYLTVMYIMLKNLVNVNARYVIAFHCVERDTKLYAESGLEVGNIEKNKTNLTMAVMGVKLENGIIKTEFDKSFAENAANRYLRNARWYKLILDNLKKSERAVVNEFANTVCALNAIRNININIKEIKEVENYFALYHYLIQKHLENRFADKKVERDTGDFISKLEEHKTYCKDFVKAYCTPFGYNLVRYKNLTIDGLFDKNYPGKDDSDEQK
Assay: crRNA (strand 1, pre-loaded); Mg2+; 40 mM Tris-HCl pH 7.5, 150 mM NaCl, 6 mM MgCl2, 1 mM DTT, 0.1% Tween-20, 0.2 mg/ml BSA; 25 C; 10 min per concentration, then washed
Conditions: tags: His6-TwinStrep-SUMO cleaved; N-terminal SNAP kept (SNAP-Surface 488); label: 3' end held by stalled T7 RNA polymerase
Recorded Kd for the following binders
Quick note: give the figure in nM, leave out the unit.

target 1 insC 3' of 19,insG 3' of 19 (mixed) RNA 1: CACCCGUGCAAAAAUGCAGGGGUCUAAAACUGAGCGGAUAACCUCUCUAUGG RNA 2: GGGAAUGGAUCCACAUCUACGAAUUCGUACCAUCGAGAGAGGUUAUCCGCUCACCGAGAUCGGAAGAGCACACGU | 73

Now consider a different binder.
Query :: For target 1 del15,del17 (mixed) RNA 1: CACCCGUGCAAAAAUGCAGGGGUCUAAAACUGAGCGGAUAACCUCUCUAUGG RNA 2: GGGAAUGGAUCCACAUCUACGAAUUCGUACCAUAAAGGUUAUCCGCUCACCGAGAUCGGAAGAGCACACGU , what is its reported Kd?
Result :: 90
